Test: In vitro metabolic stability in human liver microsomes
Assay type: in vitro ADME
Details: human, liver microsomes, Table S5, CLint/fu, read-out: CLint_u (L/h/kg) Human (converted)
Procedure: Isolated mouse (BD Gentest, Bedford, MA) and human liver microsomes (XenoTech, Kansas City, KS) ([Plant, 2004]) were added at a final concentration of 0.25 mg/ml to a solution containing 40 mM dibasic potassium phosphate and 10 mM monobasic potassium phosphate. Stock solutions of compounds at 5 mM were prepared in 100% DMSO. A 50:50 quenching solution of acetonitrile (ACN) and methanol (MeOH) was prepared. An NADPH solution was prepared at 10 mM. […]
ASSAY_ENDPOINT: CLint scaled at 5 µM

Exercise: CLint scaled at 5 µM for `NC(=O)Cn1c(CCNC(=O)COc2ccccc2)nc2ccccc21` ?
Key: < 1.53 L/h/kg

Exercise: Now try `O=C(COc1ccc(N2C(=O)CCC2=O)cc1)NCCc1nc2ccccc2[nH]1` .
Key: < 1.51 L/h/kg

Exercise: Now the same for `O=C(COc1ccccc1)NCCc1nc2ccccc2[nH]1`
Key: < 1.5 L/h/kg

Exercise: Likewise for `O=C(COc1ccc2c(C(=O)O)cccc2c1)NCCc1nc2ccccc2[nH]1` ?
Key: < 1.5 L/h/kg

###

test: In vitro metabolic stability in human liver microsomes; type: in vitro ADME; settings: Table S5, CLint/fu
Mark rule not met for CLint_u (L/h/kg) Human values under 10 L/h/kg, and rule met for everything at or above.

O=C(COc1ccc2ccccc2c1O)NCCc1nc2ccccc2[nH]1
rule met
O=C(COc1ccccc1Cl)NCCc1nc2ccccc2[nH]1
rule met
O=C(CCOc1ccccc1)NCCc1nc2ccccc2[nH]1
rule not met
CC(=O)NCCc1nc2ccccc2n1CCOc1ccccc1
rule not met
O=C(COc1ccc2ccccc2c1CO)NCCc1nc2ccccc2[nH]1
rule met

Please look at the following compound next.
Exercise: Hi team, for `Cc1ccccc1OCC(=O)NCCc1c[nH]c2ccccc12` , is the recorded CLint_u (L/h/kg) Human at or above 10 L/h/kg?
Key: rule met

###

target: cruzain (Trypanosoma cruzi); construct: made in house; host or cells: Escherichia coli (strain M15); experiment: Cruzain enzyme inhibition assay (cleavage of fluorogenic substrate Z-FR-AMC); type: biochemical; settings: compound 100 µM; mean of three measures
Sequence (P25779 123-337 limits assumed): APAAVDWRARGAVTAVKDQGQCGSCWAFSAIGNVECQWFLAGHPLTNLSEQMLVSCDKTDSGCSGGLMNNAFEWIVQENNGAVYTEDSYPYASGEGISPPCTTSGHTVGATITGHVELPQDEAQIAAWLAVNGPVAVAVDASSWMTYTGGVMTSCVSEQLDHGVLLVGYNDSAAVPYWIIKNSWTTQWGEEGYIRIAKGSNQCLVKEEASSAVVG
Attribute: inhibition at 100 µM
A number alone suffices; assume %.

Take a look at these entries with their results.
CC(=O)Nc1ccc(OCC(=O)NCCc2nc3ccccc3[nH]2)cc1
79
C=CCCn1c(CCNC(=O)COc2ccccc2)nc2ccccc21
79
O=C(COc1ccc2c(C(=O)O)cccc2c1)NCCc1nc2ccccc2[nH]1
58
Cn1c(CCNC(=O)COc2ccccc2)nc2ccccc21
87
O=C(COc1ccc2cc(C(=O)O)ccc2c1)NCCc1nc2ccccc2[nH]1
89

Exercise: Name the reported inhibition at 100 µM value associated with the compound `COCCn1c(CCNC(=O)COc2ccccc2)nc2ccccc21`
Key: 79

Exercise: Repeat for the following compound: `O=C(COc1ccccc1)NCCc1nc2ccccc2n1-c1ccccc1`
Key: 79

Exercise: And then `O=C(COc1ccc2ccc(O)cc2c1)NCCc1nc2ccccc2[nH]1` , what is it?
Key: 96

Exercise: Queued: `O=C(COc1ccccc1)NCCc1nc2ccccc2n1CCOc1ccccc1Br`
Key: 72

Exercise: Would you kindly repeat that for `O=C(COc1ccc(N2C(=O)CCC2=O)cc1)NCCc1nc2ccccc2[nH]1` ?
Key: 20

Exercise: Thanks! And `Nc1cccc(OCC(=O)NCCc2nc3ccccc3[nH]2)c1` ?
Key: 90

Exercise: Queued: `O=C(COc1ccccc1)NCCc1nc2ccccc2n1CCCOc1ccccc1`
Key: 81

Exercise: Now try `COc1cc(OCC(=O)NCCc2nc3ccccc3[nH]2)ccc1[N+](=O)[O-]` .
Key: 62

Exercise: Also `O=C(COc1ccccc1)NCCc1nc2ccccc2n1CCOc1ccccc1` ?
Key: 92

Exercise: # iterate: `O=C(COc1cccc([N+](=O)[O-])c1)NCCc1nc2ccccc2[nH]1`
Key: 83
